Provenance of the data: ChEMBL document CHEMBL1949556

I'd appreciate it if you could supply Ratio IC50 values for the items below.
- Species: Homo sapiens
- ASSAY_NAME: Selectivity ratio of IC50 for human lipoprotein lipase to IC50 for human endothelial lipase by vesicle assay

// query Please look at this compound and report its Ratio IC50: Cc1ccc(B(O)O)cc1 [TOLYL BORONIC ACID]
// result 0.5

// query Tell me measured Ratio IC50 for CCCCCCCCCc1cccc(B(O)O)c1 please.
// result > 20

// query Give Ratio IC50 for CCCCCc1ccc(B2OC(C)(C)C(C)(C)O2)cc1
// result 19

// query Give me measured Ratio IC50, please, for this compound: CCCCCc1cccc(B2OC(C)(C)C(C)(C)O2)c1
// result 11

// query Please indicate Ratio IC50 recorded for CC1(C)OB(c2ccc(-c3ccsc3)cc2)OC1(C)C
// result 10

// query For the compound CC1(C)OB(c2ccc(-c3ccc(F)cc3)cc2)OC1(C)C , give its measured Ratio IC50 value.
// result 34

// query Retrieve Ratio IC50 measured for CC1(C)OB(c2ccc(-c3ccc4ccccc4c3)cc2)OC1(C)C and print it.
// result 11

// query Please give the documented Ratio IC50 of CCCc1ccc(B(O)O)cc1
// result 4

// query Report measured Ratio IC50; entry is CCCCCCCc1ccc(B2OC(C)(C)C(C)(C)O2)cc1
// result 16

// query Supply Ratio IC50 value. Item: CC1(C)OB(c2ccc(-c3ccoc3)cc2)OC1(C)C
// result 5.4

// query Fill in Ratio IC50 for record CCCCCc1ccc(B(O)O)cc1
// result 15

// query Complete the entry with Ratio IC50 for CCCCCc1cccc(B(O)O)c1
// result 4

// query Return Ratio IC50 (reported value) for this compound: CCCCCCCCCc1ccc(B(O)O)cc1
// result 42

// query Specify reported Ratio IC50 for the compound shown: CC1(C)OB(c2ccc(-c3ccco3)cc2)OC1(C)C
// result 5

// query Identify the reported Ratio IC50 for the following entry. CC1(C)OB(c2ccc(-c3ccccc3)cc2)OC1(C)C
// result 4.4

// query Supply recorded Ratio IC50 for CC1(C)OB(c2ccc(-c3cccs3)cc2)OC1(C)C here.
// result 3.7

// query Give the reported Ratio IC50 for this compound. CCCc1ccc(B2OC(C)(C)C(C)(C)O2)cc1
// result 5

// query Give me measured Ratio IC50, please, for this compound: CCc1ccc(B(O)O)cc1
// result 0.3

// query Consider the compound CCCCCCCCCc1ccc(B2OC(C)(C)C(C)(C)O2)cc1 and give its recorded Ratio IC50.
// result 20

// query Complete the entry with Ratio IC50 for CCCCCCCc1ccc(B(O)O)cc1
// result 18

// query // fetch Ratio IC50 given entry CCCCCCCCCCCc1ccc(B(O)O)cc1
// result 25

---

Assign inhibition to each entry below.
- SYSTEM: Lipoprotein lipase (Homo sapiens)
- ASSAY_NAME: Inhibition of human lipoprotein lipase expressed using recombinant adenovirus using glycerol-tri[9,10(n)-3H]oleate at 50 uM after 1 hr by vesicle assay
Please give a number only; it is taken to be in %.

// query Return inhibition (reported value) for this molecule: CCCCCCCCCCCCCCCB(O)O
// result 63

// query Answer with the recorded inhibition for the molecule listed here: CCCCCCCCCCCCCCCC(=O)C(F)(F)F
// result 14

// query Name the recorded inhibition of the item CCCCCCCCCCCCCCCC=O in your answer.
// result -1

// query Specify reported inhibition for the molecule shown: CCCCCCCCCCCCCCCC#N
// result 14

// query # return recorded inhibition for input CCCCCCCCCCCCCCCC(=O)C=[N+]=[N-]
// result 20

// query Annotate the molecule CCCCCCCCCCCCCCCC(=O)CCl with its measured inhibition.
// result -10
